Test system: cancer pathways
Assay comment: Screening of cancer pathways in human cells (PCA and phospho-immunofluorescence)
Type: cell-based
Condition description: cancer pathway in which the drug was active; screened at 10 micromolar, HEK293 cells
Readout: Pathway Activity

>  <Compound>
CC1(C)CCC2=C(O1)c1ccccc1C(=O)C2=O

>  <Reported result>
apoptosis

$$$$
>  <Compound>
CCN(CC)CCOc1ccc(C(=C(Cl)c2ccccc2)c2ccccc2)cc1

>  <Reported result>
proliferation

$$$$
>  <Compound>
CC(C)COCC(CN(Cc1ccccc1)c1ccccc1)N1CCCC1 (centres unmarked)

>  <Reported result>
invasion/metastasis

$$$$
>  <Compound>
COC(=O)[C@H]1[C@H]2C[C@H]3c4[nH]c5cc(OC)ccc5c4CCN3C[C@H]2C[C@@H](OC(=O)c2cc(OC)c(OC)c(OC)c2)[C@@H]1OC

>  <Reported result>
apoptosis

$$$$
>  <Compound>
Oc1ccc(Cl)cc1Cc1cc(Cl)ccc1O

>  <Reported result>
proliferation

$$$$
>  <Compound>
Cc1c(NC(C)C)c(=O)n(-c2ccccc2)n1C

>  <Reported result>
invasion/metastasis

$$$$
>  <Compound>
CCN(CCCCOC(=O)c1ccc(OC)c(OC)c1)C(C)Cc1ccc(OC)cc1 (centres unmarked)

>  <Reported result>
invasion/metastasis

$$$$
>  <Compound>
O=C(CCCN1CC=C(n2c(=O)[nH]c3ccccc32)CC1)c1ccc(F)cc1

>  <Reported result>
invasion/metastasis

$$$$
>  <Compound>
CC(C)c1c(C(=O)Nc2ccccc2)c(-c2ccccc2)c(-c2ccc(F)cc2)n1CC[C@@H](O)C[C@@H](O)CC(=O)O

>  <Reported result>
invasion/metastasis

$$$$
>  <Compound>
Fc1ccc(C(c2ccc(F)cc2)N2CCN(C/C=C/c3ccccc3)CC2)cc1

>  <Reported result>
invasion/metastasis

$$$$
>  <Compound>
CC(C)(C)c1ccc(C(O)CCCN2CCC(C(O)(c3ccccc3)c3ccccc3)CC2)cc1 (centres unmarked)

>  <Reported result>
invasion/metastasis

$$$$
>  <Compound>
COC(=O)Nc1nc2ccc(C(=O)c3ccccc3)cc2[nH]1

>  <Reported result>
invasion/metastasis

$$$$
